# protocol summary: High-throughput drug toxicity screening in the BPDCN cell line Gen2.2 (AID 1224824);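 further: cells exposed to compounds for 48 h before reading; 100% = DMSO and 0% = bortezomib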
# stated conditions: Gen2.2 BPDCN cells; at 45.8 µM (top of the series)
# Description: Blastic plasmacytoid dendritic cell neoplasm (BPDCN) is a rare, aggressive and largely incurable hematologic malignancy originating from plasmacytoid dendritic cells (pDCs). Although an initial response to chemotherapy is common, BPDCN prognosis is extremely poor and most patients relapse with drug-resistant disease leading to a median overall survival of ~1 year after diagnosis. […]
quantity name: cell viability, % of control (lower = more cytotoxic) (%)
Give just the number in %; leave the unit off.

Would you please look over these solved cases?
cell viability, % of control (lower = more cytotoxic) in this record for Cc1c(N)nc([C@H](CC(N)=O)NC[C@@H](N)C(N)=O)nc1C(=O)N[C@H](C(=O)N[C@@H](C)[C@H](O)[C@@H](C)C(=O)N[C@@H](C(=O)NCCc1nc(-c2nc(C(=O)NCCC[S+](C)C)cs2)cs1)[C@@H](C)O)C(O[C@H]1O[C@H](CO)[C@H](O)[C@@H](O)[C@@H]1O[C@H]1O[C@H](CO)[C@@H](O)[C@H](OC(N)=O)[C@H]1O)c1cnc[nH]1 (stereo partly specified) : 132

Field cell viability, % of control (lower = more cytotoxic) (entry `O=c1[nH]c2ccc(Cl)cc2c(N[C@@H]2CN3CCC2CC3)c1-c1nc2ccccc2[nH]1` ) reads 2.72

Record summary for `CCOC(=O)c1c(C(C#N)=CN)c2ccc(Cl)c(Cl)c2n1C` : reported cell viability, % of control (lower = more cytotoxic) = 130

The compound listed as NC1CC1c1ccccc1 (stereo unspecified) has a reported cell viability, % of control (lower = more cytotoxic) of 70.9

Memo: `Cc1ccccc1-n1c(Cn2cnc3c(N)ncnc32)nc2cccc(C)c2c1=O` , reported cell viability, % of control (lower = more cytotoxic): 68.3

cell viability, % of control (lower = more cytotoxic) recorded for this compound, `CCCCCC[C@H]1C(=O)O[C@H](C)[C@H](NC(=O)c2cccc(NC=O)c2O)C(=O)O[C@@H](C)[C@@H]1OC(=O)CC(C)C` , is 177

More entries:
The reported value for `Cc1nc(-c2ccc(-c3ccc(C(=O)N4CCc5cc6c(cc54)C4(CCN(C)CC4)CO6)cc3)c(C)c2)no1` in terms of cell viability, % of control (lower = more cytotoxic) is 163

Form: compound = `c1cc2c(cc1[C@H]1OC[C@H]3[C@H]1CO[C@H]3c1ccc3c(c1)OCO3)OCO2` ; cell viability, % of control (lower = more cytotoxic) = 197

The compound listed as `Oc1ccc2c3c1O[C@H]1c4[nH]c5c(c4C[C@@]4(O)[C@@H](C2)N(CC2CC2)CC[C@]314)C[C@@]1(O)[C@H]2Cc3ccc(O)c4c3[C@@]1(CCN2CC1CC1)[C@H]5O4` shows cell viability, % of control (lower = more cytotoxic) equal to 143

GET /value?item= `CCNC(=O)C[C@@H]1N=C(c2ccc(Cl)cc2)c2cc(OC)ccc2-n2c(C)nnc21` &field=cell viability, % of control (lower = more cytotoxic) returns 12.3

So for `CC(=O)O[C@@]12CO[C@H]1C[C@H](O)[C@@]1(C)C(=O)[C@H](O)C3=C(C)[C@@H](O)C[C@@](O)([C@@H](OC(=O)c4ccccc4)[C@@H]21)C3(C)C` , the logged cell viability, % of control (lower = more cytotoxic) turned out to be 42

Record `C[C@]12CC[C@H]3[C@@H](CCC4=CC(=O)CC[C@@]43C)[C@H]1CC[C@H]2O` , field cell viability, % of control (lower = more cytotoxic): 83.2

get_value(item= CCOP(=O)(OCC)C(C)NC(=O)N(CCCl)N=O (stereo unspecified) , readout=cell viability, % of control (lower = more cytotoxic)) returns 109

The value of cell viability, % of control (lower = more cytotoxic) measured for the compound `CC[C@@H](C(N)=O)N1CCCC1=O` turned out to be 211

For NC1=NC(=O)N2CC12 (stereo unspecified) the compound record lists cell viability, % of control (lower = more cytotoxic) as 8.27

Reported cell viability, % of control (lower = more cytotoxic) of CC(=CCCC1=CCC(C2=CC(=O)OC2O)OC1O)CCC1=C(C)CCCC1(C)C (stereo unspecified) : 124
